# System: 947758-054-R-J2-PDC spheroid growth, percent test/control;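 further: spheroids exposed to compounds for one week before readout; 100% = DMSO vehicle control wells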
# Protocol summary: Anticancer human tumor 947758-054-R-J2-PDC patient-derived colon adenocarcinoma cell line growth inhibition [CLK]
# Conditions: second compound 1 µM; first compound 0.1 µM; active compounds read low; spheroids with HUVEC and MSC
Records here are stratified by viability, T/C; strata: class 0 (below 2%), class 1 (2% to below 40%), class 2 (40% or more)

Compound	Assayed target	Qualitative label
Nc1ccccc1NC(=O)c1ccc(CNC(=O)OCc2cccnc2)cc1 + CNC(=O)c1ccc(Nc2nc(OC3CCCC3)c3c(-c4ccc5nc(C)oc5c4)c[nH]c3n2)c(OC)c1	947758-054-R-J2-PDC spheroid growth, percent test/control	class 2
CCc1c2c(nc3ccc(O)cc13)-c1cc3c(c(=O)n1C2)COC(=O)[C@]3(O)CC + CN1CCN(c2cc(C(=O)Nc3cc4cc(-c5cnn(C)c5)ccc4cn3)ccn2)CC1	947758-054-R-J2-PDC spheroid growth, percent test/control	class 0
C=CC(=O)N1CCN(c2nc(=O)n(-c3c(C)ccnc3C(C)C)c3nc(-c4c(O)cccc4F)c(F)cc23)C(C)C1 (stereo not given) + CN1CCN(c2cc(C(=O)Nc3cc4cc(-c5cnn(C)c5)ccc4cn3)ccn2)CC1	947758-054-R-J2-PDC spheroid growth, percent test/control	class 1
COC1C=CCC(C)C(C)S(=O)(=O)NC(=O)c2ccc3c(c2)N(CC2CCC21)CC1(CCCc2cc(Cl)ccc21)CO3 (stereo not given) + CN1CCN(c2cc(C(=O)Nc3cc4cc(-c5cnn(C)c5)ccc4cn3)ccn2)CC1	947758-054-R-J2-PDC spheroid growth, percent test/control	class 1
CC1COCCN1c1cc(C2(S(C)(=N)=O)CC2)nc(-c2ccnc3[nH]ccc23)n1 (stereo not given) + CNC(=O)c1ccc(Nc2nc(OC3CCCC3)c3c(-c4ccc5nc(C)oc5c4)c[nH]c3n2)c(OC)c1	947758-054-R-J2-PDC spheroid growth, percent test/control	class 2

# bin label for COC1C=CCC(C)C(C)S(=O)(=O)NC(=O)c2ccc3c(c2)N(CC2CCC21)CC1(CCCc2cc(Cl)ccc21)CO3 (stereo not given) + CNC(=O)c1ccc(Nc2nc(OC3CCCC3)c3c(-c4ccc5nc(C)oc5c4)c[nH]c3n2)c(OC)c1
class 1

Hey, which category is COc1ccc([C@@H](O)c2cc(-c3ncnc4cc(N5CCOCC5)ccc34)c(F)cc2Cl)nn1 + CN1CCN(c2cc(C(=O)Nc3cc4cc(-c5cnn(C)c5)ccc4cn3)ccn2)CC1 in, do you know?
class 0

For this compound, which bin applies? O=C(c1cc(Cc2n[nH]c(=O)c3ccccc23)ccc1F)N1CCN(C(=O)C2CC2)CC1 + CNC(=O)c1ccc(Nc2nc(OC3CCCC3)c3c(-c4ccc5nc(C)oc5c4)c[nH]c3n2)c(OC)c1
class 2

Just checking, what class would you give CC1COCCN1c1cc(C2(S(C)(=N)=O)CC2)nc(-c2ccnc3[nH]ccc23)n1 (stereo not given) + CN1CCN(c2cc(C(=O)Nc3cc4cc(-c5cnn(C)c5)ccc4cn3)ccn2)CC1 here?
class 0

Categorize the following entry: CC1(C)CCC(CN2CCN(c3ccc(C(=O)NS(=O)(=O)c4ccc(NCC5CCOCC5)c([N+](=O)[O-])c4)c(Oc4cnc5[nH]ccc5c4)c3)CC2)=C(c2ccc(Cl)cc2)C1 + CNC(=O)c1ccc(Nc2nc(OC3CCCC3)c3c(-c4ccc5nc(C)oc5c4)c[nH]c3n2)c(OC)c1
class 2

Class? Entry: Nc1ccn(C2OC(CO)C(O)C2(F)F)c(=O)n1 (stereo not given) + CN1CCN(c2cc(C(=O)Nc3cc4cc(-c5cnn(C)c5)ccc4cn3)ccn2)CC1
class 0

Which class is correct for the following compound? C=C(F)C(=O)N1CCN(c2nc(OCC3CCCN3C)nc3c2CCN(c2cccc4cccc(Cl)c24)C3)CC1CC#N (stereo not given) + CNC(=O)c1ccc(Nc2nc(OC3CCCC3)c3c(-c4ccc5nc(C)oc5c4)c[nH]c3n2)c(OC)c1
class 1

Exam item: assign C=C(F)C(=O)N1CCN(c2nc(OCC3CCCN3C)nc3c2CCN(c2cccc4cccc(Cl)c24)C3)CC1CC#N (stereo not given) + CN1CCN(c2cc(C(=O)Nc3cc4cc(-c5cnn(C)c5)ccc4cn3)ccn2)CC1 to the correct category.
class 0

Please classify: Cn1ncnc1[C@H]1c2n[nH]c(=O)c3cc(F)cc(c23)N[C@@H]1c1ccc(F)cc1 + CNC(=O)c1ccc(Nc2nc(OC3CCCC3)c3c(-c4ccc5nc(C)oc5c4)c[nH]c3n2)c(OC)c1
class 1
